Experiment: total protein half-life in vivo (active degradation + dilution); higher = more stable protein
Conditions: E. coli NCM3722 delta-clpP delta-lon delta-hslV; growth: N-lim chemostat; doubling time 6 h
# label = satisfied if total protein half-life in vivo >= 4 h else not satisfied

INSERT INTO assay_data (query_sequence, group_label) VALUES
  ('MRSKYIVIEGLEGAGKTTARNVVVETLEQLGIRDMVFTREPGGTQLAEKLRSLVLDIKSVGDEVITDKAEVLMFYAARVQLVETVIKPALANGTWVIGDRHDLSTQAYQGGGRGIDQHMLATLRDAVLGDFRPDLTLYLDVTPEVGLKRARARGELDRIEQESFDFFNRTRARYLELAAQDKSIHTIDATQPLEAVMDAIRTTVTHWVKELDA [P0A720]', 'satisfied'),
  ('MAAKDRIQAIKQMVANDKKVTVSNLSGIFQVTEETIRRDLEKLEDEGFLTRTYGGAVLNTAMLTENIHFYKRASSFYEEKQLIARKALPFIDNKTTMAADSSSTVMELLKLLQDRSGLTLLTNSAEAIHVLAQSEIKVVSTGGELNKNTLSLQGRITKEIIRRYHVDIMVMSCKGLDINSGALDSNEAEAEIKKTMIRQATEVALLVDHSKFDRKAFVQLADFSHINYIITDKSPGAEWIAFCKDNNIQLVW', 'satisfied'),
  ('MSEMIYGIHAVQALLERAPERFQEVFILKGREDKRLLPLIHALESQGVVIQLANRQYLDEKSDGAVHQGIIARVKPGRQYQENDLPDLIASLDQPFLLILDGVTDPHNLGACLRSADAAGVHAVIVPKDRSAQLNATAKKVACGAAESVPLIRVTNLARTMRMLQEENIWIVGTAGEADHTLYQSKMTGRLALVMGAEGEGMRRLTREHCDELISIPMAGSVSSLNVSVATGICLFEAVRQRS', 'satisfied'),
  ('MAHRPRWTLSQVTELFEKPLLDLLFEAQQVHRQHFDPRQVQVSTLLSIKTGACPEDCKYCPQSSRYKTGLEAERLMEVEQVLESARKAKAAGSTRFCMGAAWKNPHERDMPYLEQMVQGVKAMGLEACMTLGTLSESQAQRLANAGLDYYNHNLDTSPEFYGNIITTRTYQERLDTLEKVRDAGIKVCSGGIVGLGETVKDRAGLLLQLANLPTPPESVPINMLVKVKGTPLADNDDVDAFDFIRTIAVARIMMPTSYVRLSAGREQMNEQTQAMCFMAGANSIFYGCKLLTTPNPEEDKDLQLFRKLGLNPQQTAVLAGDNEQQQRLEQALMTPDTDEYYNAAAL', 'not satisfied'),
  ('MFKPHVTVACVVHAEGKFLVVEETINGKALWNQPAGHLEADETLVEAAARELWEETGISAQPQHFIRMHQWIAPDKTPFLRFLFAIELEQICPTQPHDSDIDCCRWVSAEEILQASNLRSPLVAESIRCYQSGQRYPLEMIGDFNWPFTKGVI [P0AEI6]', 'satisfied');

----------
Reported total protein half-life in vivo values follow for various sequences
Experiment: total protein half-life in vivo (active degradation + dilution); higher = more stable protein
Settings: wild type E. coli NCM3722; growth: C-lim chemostat; doubling time 12 h
value.type: total protein half-life in vivo (h)

INSERT INTO measurements (query_sequence, recorded_result) VALUES
  ('MNNTPRYPQRVRNDLRFRELTVLRVERISAGFQRIVLGGEALDGFTSRGFDDHSKLFFPQPDAHFVPPTVTEEGIVWPEGPRPPSRDYTPLYDELRHELAIDFFIHDGGVASGWAMQAQPGDKLTVAGPRGSLVVPEDYAYQLYVCDESGMPALRRRLETLSKLAVKPQVSALVSVRDNACQDYLAHLDGFNIEWLAHDEQAVDARLAQMQIPADDYFIWITGEGKVVKNLSRRFEAEQYDPQRVRAAAYWHAK', 9.46),
  ('MTSPNILLTRIDNRLVHGQVGVTWTSTIGANLLVVVDDVVANDDIQQKLMGITAETYGFGIRFFTIEKTINVIGKAAPHQKIFLICRTPQTVRKLVEGGIDLKDVNVGNMHFSEGKKQISSKVYVDDQDLTDLRFIKQRGVNVFIQDVPGDQKEQIPD', 6.95),
  ('MTEAQRHQILLEMLAQLGFVTVEKVVERLGISPATARRDINKLDESGKLKKVRNGAEAITQQRPRWTPMNLHQAQNHDEKVRIAKAASQLVNPGESVVINCGSTAFLLGREMCGKPVQIITNYLPLANYLIDQEHDSVIIMGGQYNKSQSITLSPQGSENSLYAGHWMFTSGKGLTAEGLYKTDMLTAMAEQKMLSVVGKLVVLVDSSKIGERAGMLFSRADQIDMLITGKNANPEILQQLEAQGVSILRV [P0A9W0]', 10.6),
  ('MNAYELQALRHIFAMTIDECATWIAQTGDSESWRQWENGKCAIPDRVVEQLLAMRQQRKKHLHAIIEKINNRIGNNTMRFFPDLTAFQRVYPDGNFIDWKIYQSVAAELYAHDLERLC', 5.24);

----------
Reported total protein half-life in vivo values follow for various sequences
Assay: total protein half-life in vivo (active degradation + dilution); higher = more stable protein
Settings: wild type E. coli NCM3722; growth: C-lim chemostat; doubling time 3 h
value.type: total protein half-life in vivo (h)

INSERT INTO assay_data (query_sequence, readout_unit, recorded_result) VALUES
  ('MNDAIPRPQAKTRKALTPLLEIRNLTKSYDGQHAVDDVSLTIYKGEIFALLGASGCGKSTLLRMLAGFEQPSAGQIMLDGVDLSQVPPYLRPINMMFQSYALFPHMTVEQNIAFGLKQDKLPKAEIASRVNEMLGLVHMQEFAKRKPHQLSGGQRQRVALARSLAKRPKLLLLDEPMGALDKKLRDRMQLEVVDILERVGVTCVMVTHDQEEAMTMAGRIAIMNRGKFVQIGEPEEIYEHPTTRYSAEFIGSVNVFEGVLKERQEDGLVLDSPGLVHPLKVDADASVVDNVPVHVALRPEKIMLCEEPPANGCNFAVGEVIHIAYLGDLSVYHVRLKSGQMISAQLQNAHRHRKGLPTWGDEVRLCWEVDSCVVLTV', 'h', 2.93),
  ('MRTQWPSPAKLNLFLYITGQRADGYHTLQTLFQFLDYGDTISIELRDDGDIRLLTPVEGVEHEDNLIVRAARLLMKTAADSGRLPTGSGANISIDKRLPMGGGLGGGSSNAATVLVALNHLWQCGLSMDELAEMGLTLGADVPVFVRGHAAFAEGVGEILTPVDPPEKWYLVAHPGVSIPTPVIFKDPELPRNTPKRSIETLLKCEFSNDCEVIARKRFREVDAVLSWLLEYAPSRLTGTGACVFAEFDTESEARQVLEQAPEWLNGFVAKGANLSPLHRAML', 'h', 2.95),
  ('MSAQKPGLHPRNRHHSRYDLATLCQVNPELRQFLTLTPAGEQSVDFANPLAVKALNKALLAHFYAVANWDIPDGFLCPPVPGRADYIHHLADLLAEASGTIPANASILDIGVGANCIYPLIGVHEYGWRFTGSETSSQALSSAQAIISSNPGLNRAIRLRRQKESGAIFNGIIHKNEQYDATLCNPPFHDSAAAARAGSERKRRNLGLNKDDALNFGGQQQELWCEGGEVTFIKKMIEESKGFAKQVMWFTSLVSRGENLPPLYRALTDVGAVKVVKKEMAQGQKQSRFIAWTFMNDEQRRRFVNRQR', 'h', 2.98),
  ('MNNRVHQGHLARKRFGQNFLNDQFVIDSIVSAINPQKGQAMVEIGPGLAALTEPVGERLDQLTVIELDRDLAARLQTHPFLGPKLTIYQQDAMTFNFGELAEKMGQPLRVFGNLPYNISTPLMFHLFSYTDAIADMHFMLQKEVVNRLVAGPNSKAYGRLSVMAQYYCNVIPVLEVPPSAFTPPPKVDSAVVRLVPHATMPHPVKDVRVLSRITTEAFNQRRKTIRNSLGNLFSVEVLTGMGIDPAMRAENISVAQYCQMANYLAENAPLQES', 'h', 2.97),
  ('MKKIGVAGLQREQIKKTIEATAPGCFEVFIHNDMEAAMKVKSGQLDYYIGACNTGAGAALSIAIAVIGYNKSCTIAKPGIKAKDEHIAKMIAEGKVAFGLSVEHVEHAIPMLINHLK', 'h', 3.02),
  ('MQAEILLTLKLQQKLFADPRRISLLKHIALSGSISQGAKDAGISYKSAWDAINEMNQLSEHILVERATGGKGGGGAVLTRYGQRLIQLYDLLAQIQQKAFDVLSDDDALPLNSLLAAISRFSLQTSARNQWFGTITARDHDDVQQHVDVLLADGKTRLKVAITAQSGARLGLDEGKEVLILLKAPWVGITQDEAVAQNADNQLPGIISHIERGAEQCEVLMALPDGQTLCATVPVNEATSLQQGQNVTAYFNADSVIIATLC [P0A9G8]', 'h', 3.04);

----------
Assay: total protein half-life in vivo (active degradation + dilution); higher = more stable protein
Conditions: wild type E. coli NCM3722; growth: P-lim chemostat; doubling time 12 h
Reported total protein half-life in vivo values follow for various sequences
value.type: total protein half-life in vivo (h)

INSERT INTO assay_data (query_sequence, readout_unit, recorded_result) VALUES
  ('MGGISIWQLLIIAVIVVLLFGTKKLGSIGSDLGASIKGFKKAMSDDEPKQDKTSQDADFTAKTIADKQADTNQEQAKTEDAKRHDKEQV', 'h', 8.96),
  ('MVTINNARKILQRVDTLPLYLHAYAFHLNMRLERVLPADLLDIASENNLRGVKIHVLDGERFSLGNMDDKELSAFGDKARRLNLDIHIETSASDKASIDEAVAIALKTGASSVRFYPRYEGNLRDVLSIIANDIAYVRETYQDSGLTFTIEQHEDLKSHELVSLVKESEMESLSLLFDFANMINANEHPIDALKTMAPHITQVHIKDALIVKEPGGLGHKACISGQGDMPFKALLTHLICLGDDEPQVTAYGLEEEVDYYAPAFRFEDEDDNPWIPYRQMSETPLPENHLLDARLRKEKEDAINQINHVRNVLQQIKQEANHLLNH', 'h', 4.74),
  ('MSTEKEKMIAGELYRSADETLSRDRLRARQLIHRYNHSLAEEHTLRQQILADLFGQVTEAYIEPTFRCDYGYNIFLGNNFFANFDCVMLDVCPIRIGDNCMLAPGVHIYTATHPIDPVARNSGAELGKPVTIGNNVWIGGRAVINPGVTIGDNVVVASGAVVTKDVPDNVVVGGNPARIIKKL', 'h', 7.59),
  ('MSEKYIVTWDMLQIHARKLASRLMPSEQWKGIIAVSRGGLVPGALLARELGIRHVDTVCISSYDHDNQRELKVLKRAEGDGEGFIVIDDLVDTGGTAVAIREMYPKAHFVTIFAKPAGRPLVDDYVVDIPQDTWIEQPWDMGVVFVPPISGR [P0A9M5]', 'h', 14);
